Tested on: Fibroblast
Test: Multiplex assay against human fibroblast
Type: toxicity, cell-based
Conditions: 48 h, 1 µM, compound concentration 1 uM, replicate 2
QUANTITY: Population Tubulin-Different-Phenotype (%)

• CNc1oc(-c2cccc3ccccc23)nc1C#N = 4
• Cc1cc2c(cc1N1C(=O)c3cccc4c(CCCO)ccc(c34)C1=O)n(C)c(=O)n2C = 35
• COc1cc2c(NC3CCN(C(C)C)CC3)nc(N3CCC(F)(F)CC3)nc2cc1OCCCN1CCCC1 = 20
• Cl.Cl.Nc1ncnc2c1c(-c1cccc(OCc3ccccc3)c1)cn2[C@H]1C[C@@H](CN2CCC2)C1 = 54
• CCC(=O)O[C@]1(C(=O)SCF)[C@H](C)C[C@H]2[C@@H]3C[C@H](F)C4=CC(=O)C=C[C@]4(C)[C@@]3(F)[C@@H](O)C[C@@]21C [FLUTICASONE PROPIONATE] = 26
• CC(=O)c1cc(-c2cc(C(=O)NC3CC3)ccc2C)c2ncccn12 = 32
• CCc1cc2c(cc1CC)CC(NC[C@H](O)c1ccc(O)c3[nH]c(=O)ccc13)C2 [INDACATEROL] = 35
• O=C(O)c1ccc2cc(-c3ccc(O)c(C45CC6CC(CC(C6)C4)C5)c3)ccc2c1 [O-DEMETHYLATED ADAPALENE] = 28
